- Assay procedure: Apparent oral bioavailability in Sprague-Dawley rat at 10 mg/kg
- Type: ADME, organism-based
- Run parameters: in vivo
Value kind: bioavailability (%)
Provide the reading as a plain figure in %.

# input GET /values?readout=bioavailability&item= "COc1cc2[nH]c(C)c(-c3ccc(Oc4ccc(OC(F)(F)F)cc4)cc3F)c(=O)c2cc1Cl"
# output 14

###

- Run parameters: octanol/water, pH 7.4
Value kind: logD
Number only, no unit.

Solved entries (count: 6):
{"Compound": "COc1cc2[nH]c(C)c(-c3ccc(-c4ccc(OC(F)(F)F)cc4)nc3)c(=O)c2cc1Cl", "logD": 3.7}
{"Compound": "COc1cc2[nH]c(C)c(-c3ccc(Oc4ccc(OC(F)(F)F)cc4)cc3C)c(=O)c2cc1Cl", "logD": 2.1}
{"Compound": "COc1cc2[nH]c(C)c(-c3ccc(C(F)(F)F)cc3C)c(=O)c2cc1Cl", "logD": 2.7}
{"Compound": "COc1cc2[nH]c(C)c(-c3ccc(F)cc3C)c(=O)c2cc1Cl", "logD": 2.7}
{"Compound": "COc1cc2[nH]c(C)c(-c3ccc(-c4ccc(C(F)(F)F)cc4F)nc3)c(=O)c2cc1Cl", "logD": 3.7}
{"Compound": "C(=C\\c1ccccc1)/CN1CCN(C(c2ccccc2)c2ccccc2)CC1", "logD": 5.68}

# input GET /values?readout=logD&item= "COc1cc2[nH]c(C)c(-c3ccc(Cl)cc3C)c(=O)c2cc1Cl"
# output 2.9

# input Can you handle "COc1cc2[nH]c(C)c(-c3ccc(COc4ccc(OC(F)(F)F)cc4)cc3)c(=O)c2cc1Cl" next?
# output 4.4

# input Can you handle CC(C)(C)NCC(O)COc1cccc2c1CC(O)C(O)C2 (centres undefined) next?
# output 0.68

###

Listed next: entries and their corresponding EC50.
- Test system: J774
- Assay procedure: Cytotoxicity against mouse J774 cells after 72 hrs by CellTiter 96 assay
- Type: cell-based
- Run parameters: J774, 72 h

Solved entries (count: 3):
{"Smiles text": "COc1cc2[nH]c(C)c(-c3ccoc3)c(=O)c2cc1Cl", "Assayed target": "J774", "Result": "> 34.5 µM"}
{"Smiles text": "COc1cc2[nH]c(C)c(-c3ccc4c(c3)OCCO4)c(=O)c2cc1Cl", "Assayed target": "J774", "Result": "> 27.9 µM"}
{"Smiles text": "COc1cc2[nH]c(C)c(-c3ccc(OCc4ccccc4)c(F)c3)c(=O)c2cc1Cl", "Assayed target": "J774", "Result": "> 23.6 µM"}

# input GET /values?readout=EC50&item= "COc1cc2[nH]c(C)c(-c3ccc(F)cc3F)c(=O)c2cc1Cl"
# output > 29.8 µM

# input Can you handle "COc1cc2[nH]c(C)c(-c3cccnc3)c(=O)c2cc1Cl" next?
# output > 33.3 µM

# input Can you handle "COc1cc2[nH]c(C)c(-c3ccco3)c(=O)c2cc1Cl" next?
# output > 34.5 µM

# input Can you handle "COc1cc2[nH]c(C)c(-c3ccc(F)cc3)c(=O)c2cc1Cl" next?
# output > 31.5 µM

# input Can you handle "COc1cc2[nH]c(C)c(-c3cc(C(F)(F)F)cc(C(F)(F)F)c3)c(=O)c2cc1Cl" next?
# output > 22.9 µM

# input Can you handle "COc1cc2[nH]c(C)c(-c3ccc(F)cc3C)c(=O)c2cc1Cl" next?
# output 13.6 µM

# input Can you handle "COc1cc2[nH]c(C)c(-c3ccc(OC(F)(F)F)cc3)c(=O)c2cc1Cl" next?
# output > 26.1 µM

###

- Assay procedure: in vitro
- Run parameters: pampa, pH 7.4
- Description: Effective permeability of the compound at pH 7.4 by PAMPA
Value kind: Papp (×10⁻⁶ cm/s)
Provide the reading as a plain figure in ×10⁻⁶ cm/s.

# input GET /values?readout=Papp&item= "COc1cc2[nH]c(C)c(-c3ccc(Cl)cc3C)c(=O)c2cc1Cl"
# output 369

###

- Assay procedure: Cytotoxicity index, ratio of EC50 for mouse J774 cells to EC50 for multi-drug-resistant Plasmodium falciparum TM90-C2B infected in human type A+ erythrocytes
- Format: toxicity, cell-based
- Run parameters: read-out: Ratio EC50
Value kind: selectivity ratio

{"Smiles text": "COc1cc2[nH]c(C)c(-c3ccc(C)cc3)c(=O)c2cc1Cl", "Value kind": "selectivity ratio", "Result": "> 4350"}
{"Smiles text": "COc1cc2[nH]c(C)c(-c3cccc4c3oc3ccccc34)c(=O)c2cc1Cl", "Value kind": "selectivity ratio", "Result": "> 765"}
{"Smiles text": "COc1cc2[nH]c(C)c(-c3ccc(OCc4ccccc4)c(F)c3)c(=O)c2cc1Cl", "Value kind": "selectivity ratio", "Result": "> 2180"}
{"Smiles text": "COc1cc2[nH]c(C)c(-c3ccc(O)cc3)c(=O)c2cc1Cl", "Value kind": "selectivity ratio", "Result": "> 67.8"}

# input GET /values?readout=selectivity ratio&item= "COc1cc2[nH]c(C)c(-c3ccc(Oc4ccc(OC(F)(F)F)cc4)cc3F)c(=O)c2cc1Cl"
# output > 1330

# input Can you handle "COc1cc2[nH]c(C)c(-c3ccc(N(C)C)nc3)c(=O)c2cc1Cl" next?
# output > 319

# input Can you handle "COc1cc2[nH]c(C)c(-c3ccc(OC(C)C)cc3)c(=O)c2cc1Cl" next?
# output > 2220

# input Can you handle "COc1cc2[nH]c(C)c(-c3ccccn3)c(=O)c2cc1Cl" next?
# output > 156

# input Can you handle "COc1cc2[nH]c(C)c(-c3ccc(OC)c(F)c3F)c(=O)c2cc1Cl" next?
# output > 67.8

# input Can you handle "COc1cc2[nH]c(C)c(-c3ccc(OC(F)(F)F)cc3)c(=O)c2cc1Cl" next?
# output > 3360

###

- Assay procedure: Cytotoxicity index, ratio of EC50 for mouse J774 cells to EC50 for multi-drug-resistant Plasmodium falciparum TM90-C2B infected in human type A+ erythrocytes
- Assay type: toxicity, cell-based
- Run parameters: read-out: Ratio EC50
Value kind: selectivity ratio

Solved entries (count: 4):
{"Smiles text": "COc1cc2[nH]c(C)c(-c3ccncc3)c(=O)c2cc1Cl", "Value kind": "selectivity ratio", "Result": "> 152"}
{"Smiles text": "COc1cc2[nH]c(C)c(-c3ccc(C(F)(F)F)cc3)c(=O)c2cc1Cl", "Value kind": "selectivity ratio", "Result": "> 4550"}
{"Smiles text": "COc1cc2[nH]c(C)c(-c3ccc(Oc4ccccc4)cc3)c(=O)c2cc1Cl", "Value kind": "selectivity ratio", "Result": "> 19500"}
{"Smiles text": "COc1cc2[nH]c(C)c(-c3ccc(C(F)(F)F)cc3F)c(=O)c2cc1Cl", "Value kind": "selectivity ratio", "Result": "> 2500"}

# input GET /values?readout=selectivity ratio&item= "COc1cc2[nH]c(C)c(-c3ccc(F)cc3)c(=O)c2cc1Cl"
# output > 879

# input Can you handle "COc1cc2[nH]c(C)c(-c3ccc(C(=O)O)cc3)c(=O)c2cc1Cl" next?
# output > 398

# input Can you handle "COc1cc2[nH]c(C)c(-c3c(C)cc(C)cc3C)c(=O)c2cc1Cl" next?
# output 64.6

###

Listed next: entries and their corresponding inhibition in vivo at 10 mg/kg.
- Tested on: Plasmodium berghei
- Assay procedure: Antimalarial activity against Plasmodium berghei ANKA expressing GFP infected in Balb/c mouse assessed as inhibition of parasitemia at 10 mg/kg, po qd administered as single dose on day 3 to 5 of exposure measured on day 6 post exposure by in vivo thomson test relative to control
- Format: functional
Provide the reading as a plain figure in %.

Solved entries (count: 3):
{"Smiles text": "COc1cc2[nH]c(C)c(-c3ccccc3C)c(=O)c2cc1Cl", "Output unit": "%", "Number": 17}
{"Smiles text": "COc1cc2[nH]c(C)c(-c3ccc(Oc4ccc(OC(F)(F)F)cc4)cc3F)c(=O)c2cc1Cl", "Output unit": "%", "Number": 99.5}
{"Smiles text": "COc1cc2[nH]c(C)c(-c3ccc(Oc4ccc(OC(F)(F)F)cc4)cc3C)c(=O)c2cc1Cl", "Output unit": "%", "Number": 99}

# input Form field - read-out: inhibition in vivo at 10 mg/kg; system: Plasmodium berghei; submitted item: "COc1cc2[nH]c(C)c(-c3ccc(Cl)cc3C)c(=O)c2cc1Cl"
# output 95

###

- Assay procedure: Cytotoxicity index, ratio of EC50 for mouse J774 cells to EC50 for multi-drug-resistant Plasmodium falciparum TM90-C2B infected in human type A+ erythrocytes
- Assay type: toxicity, cell-based
- Run parameters: read-out: Ratio EC50
Listed next: entries and their corresponding selectivity ratio.

{"Smiles text": "COC(=O)c1ccc(-c2c(C)[nH]c3cc(OC)c(Cl)cc3c2=O)cc1", "selectivity ratio": "> 1080"}
{"Smiles text": "CCOc1cc(-c2c(C)[nH]c3cc(OC)c(Cl)cc3c2=O)ccc1F", "selectivity ratio": "> 1070"}
{"Smiles text": "COc1cc2[nH]c(C)c(-c3cc4ccccc4s3)c(=O)c2cc1Cl", "selectivity ratio": "> 1130"}
{"Smiles text": "COc1cc2[nH]c(C)c(-c3ccco3)c(=O)c2cc1Cl", "selectivity ratio": "> 4100"}
{"Smiles text": "COc1cc2[nH]c(C)c(-c3ccc(S(=O)(=O)N(C)C)cc3)c(=O)c2cc1Cl", "selectivity ratio": "> 162"}
{"Smiles text": "COc1cc2[nH]c(C)c(-c3cncnc3)c(=O)c2cc1Cl", "selectivity ratio": "> 24.4"}
{"Smiles text": "COc1cc2[nH]c(C)c(-c3ccc(N(C)C)cc3)c(=O)c2cc1Cl", "selectivity ratio": "> 1900"}
{"Smiles text": "COc1cc2[nH]c(C)c(-c3ccc(Oc4ccc(OC(F)(F)F)cc4)cc3C)c(=O)c2cc1Cl", "selectivity ratio": "> 31600"}
{"Smiles text": "COc1cc2[nH]c(C)c(-c3ccc(OCc4ccccc4)cc3)c(=O)c2cc1Cl", "selectivity ratio": "> 19300"}

# input GET /values?readout=selectivity ratio&item= "COc1cc2[nH]c(C)c(-c3ccc(F)cc3C)c(=O)c2cc1Cl"
# output 1690
